molecular target: cell surface human leukocyte elastase (HLE-CS) on U937 Clone 10 cells (Homo sapiens, UniProt P08246); construct: endogenous in cells; host or cells: human U937 Clone 10 cells; assay: Cellular adherence to glass (HLE-CS interaction); assay type: cell-based; settings: optimal adherence concentration; 2,000 U937 cells per well
Sequence (P08246 30-267): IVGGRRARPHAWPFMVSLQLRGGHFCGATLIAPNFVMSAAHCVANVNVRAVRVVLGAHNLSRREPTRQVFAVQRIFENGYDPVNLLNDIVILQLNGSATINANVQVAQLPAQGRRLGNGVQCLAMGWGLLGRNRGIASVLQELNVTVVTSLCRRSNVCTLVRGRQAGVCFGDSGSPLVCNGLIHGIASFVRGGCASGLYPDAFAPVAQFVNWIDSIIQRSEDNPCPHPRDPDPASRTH
Experimental Endpoint: HLE-CS Optimal concentration (nM)

I = O=C1[C@H](CC[C@H](O)c2ccc(F)cc2)[C@@H](c2ccc(O)cc2)N1c1ccc(F)cc1
II = C[C@@H](O)[C@H]1C(=O)N2C(C(=O)O)=C([C@H]3CCCO3)S[C@H]12
Kindly identify which of I and II has the larger recorded HLE-CS Optimal concentration value. Please respond with the label that marks your chosen entry.
I

A = Cc1onc(-c2c(Cl)cccc2Cl)c1C(=O)N[C@@H]1C(=O)N2[C@@H]1SC(C)(C)[C@@H]2C(=O)O
B = CC1(C)S[C@@H]2[C@H](NC(=O)COc3ccccc3)C(=O)N2[C@H]1C(=O)O
Kindly identify which of A and B has the larger recorded HLE-CS Optimal concentration value. Please respond with the label that marks your chosen entry.
B

1 = CO/N=C(\C(=O)N[C@@H]1C(=O)N2C(C(=O)O)=C(COC(N)=O)CS[C@H]12)c1ccco1
2 = C[C@@H](O)[C@H]1C(=O)N2C(C(=O)O)=C(S[C@@H]3CN[C@H](CNS(N)(=O)=O)C3)[C@H](C)[C@H]12
Kindly identify which of 1 and 2 has the larger recorded HLE-CS Optimal concentration value. Please respond with the label that marks your chosen entry.
2

----------
Recorded below: IC50, system UniProt P08246.
Experimental Endpoint: IC50 (µM)

Take a look at these entries with their results.
> print(dat)
                               input.smiles  experimental.endpoint  quantitative.result
1  O=C1[C@H](CC[C@H](O)c2ccc(F)cc2)[C@@H](c2ccc(O)cc2)N1c1ccc(F)cc1                   IC50                  277
2  C[C@H]1[C@H](NC(=O)/C(=N\OC(C)(C)C(=O)O)c2csc(N)n2)C(=O)N1S(=O)(=O)O                   IC50                  234
3  C[C@@H](O)[C@H]1C(=O)N2C(C(=O)O)=C([C@H]3CCCO3)S[C@H]12                   IC50                  203
4  CO/N=C(\C(=O)N[C@@H]1C(=O)N2C(C(=O)O)=C(COC(N)=O)CS[C@H]12)c1ccco1                   IC50                  167
5  Cc1onc(-c2c(Cl)cccc2Cl)c1C(=O)N[C@@H]1C(=O)N2[C@@H]1SC(C)(C)[C@@H]2C(=O)O                   IC50                  232

A = C[C@@H](O)[C@H]1C(=O)N2C(C(=O)O)=C(S[C@@H]3CN[C@H](CNS(N)(=O)=O)C3)[C@H](C)[C@H]12
B = CC1(C)S[C@@H]2[C@H](NC(=O)COc3ccccc3)C(=O)N2[C@H]1C(=O)O
Which of these two has the smaller recorded IC50: A or B ? Please respond with the label that marks your chosen entry.
A

----------
molecular target: Human leukocyte elastase (HLE-G) (Homo sapiens, UniProt P08246); construct: purchased Athens Research & Technology 16-14-051200; assay: Inhibition of HLE-G enzymatic activity; assay type: biochemical; conditions: molar excess of compound to HLE-G at IC50
Sequence (P08246 30-267): as above
Experimental Endpoint: HLE-G Molar excess

A = O=C1[C@H](CC[C@H](O)c2ccc(F)cc2)[C@@H](c2ccc(O)cc2)N1c1ccc(F)cc1
B = C[C@@H](O)[C@H]1C(=O)N2C(C(=O)O)=C(S[C@@H]3CN[C@H](CNS(N)(=O)=O)C3)[C@H](C)[C@H]12
Kindly identify which of A and B has the larger recorded HLE-G Molar excess value. Please respond with the label that marks your chosen entry.
A
(A: 3.7, B: 2.4)

Measured values drawn from paper PMC8220083 for this set.
